The measurements presented in this section are drawn from PubChem BioAssay (NCI).

- System: KM12 colon
- Method: NCI-60 one-dose screen, 48 h (100 = growth as untreated, 0 = no growth, -100 = all killed)
- Settings: 10 µM unless noted
This is part of a sample that, as a whole, favours compounds with a hit. Of some 83,000 tested, about 20% had one in any assay.
Kind request: treat 30% as inclusive, so growth at 30% or higher is Satisfied, anything lower is Not satisfied.

Item `O=c1c2cc(F)ccc2sc2c(NCCCNCCO)nc3ccc(Cl)cc3c12` with growth of 30% or above?
Satisfied

Next compound: `COc1ccc(/C=C/C(=O)c2c(C)nc3ccccc3c2/C=C/c2ccccc2)cc1O`
Satisfied

Next compound: `CCCCNc1nc(NC(C)(C)C)nc(NC(C)(C)C)n1`
Satisfied

Next compound: `O=c1c2cccc(F)c2sc2c(N3CCNCC3)nc3ccccc3c12`
Not satisfied

Next compound: `COc1cc2nc(-c3cnc(N(C)C)nc3)nc(NC3CCN(Cc4ccccc4)CC3)c2cc1OC`
Not satisfied

Next compound: `COc1cc(/C=C2\CCC/C(=C\c3cc(CN4CCCCC4)c(O)c(OC)c3)C2=O)cc(CN2CCCCC2)c1O`
Satisfied

Next compound: `CCOC(=O)c1c2c(n3cccc(Cl)c13)C(=O)c1ncccc1C2=O`
Satisfied

Next compound: `Cn1nc(C(C)(C)C)cc1NC(=O)Cc1ccc(/C=C2\C(=O)Nc3ccccc32)cc1`
Not satisfied

Next compound: COc1ccc(C2C3=C(COC3=O)N(CCO)c3cc4c(cc32)OCCO4)cc1 (stereo not given)
Satisfied

Next compound: `O=c1cc(-c2ccccc2)oc2cc(OCc3cn(Cc4ccc(F)cc4)nn3)cc(OCc3cn(Cc4ccc(F)cc4)nn3)c12`
Satisfied

Next compound: `COc1cc(/C=C/C(=O)c2ccc(Nc3nc(NCCO)nc(N4CCOCC4)n3)cc2)cc(OC)c1OC`
Not satisfied

Next compound: `O=C(Nc1ccc(N2CCNCC2)cn1)c1[nH]ncc1Nc1ncnc2sccc12`
Satisfied

Next compound: `O=C1C(Cl)=C(NCc2ccco2)C(=O)c2ccccc21`
Satisfied

Next compound: `CCCCCCCCCCCCCCn1cc(C2=C(c3coc4ccc(OC)cc34)C(=O)NC2=O)c2ccccc21`
Satisfied

Next compound: `CN=c1ccc2nc3ccc(N)cc3sc-2c1`
Not satisfied

Next compound: `COc1cc(-c2c3c(cn2S(=O)(=O)c2ccccc2)-c2nc(N)sc2CC3)cc(OC)c1OC`
Not satisfied

Next compound: COc1cc(C2C(C#N)=C(N)OC3=C2C(=O)c2ccccc2C3=O)cc(OC)c1OC (stereo not given)
Not satisfied

Next compound: `O=c1oc2ccc(Br)cc2c(=O)n1-c1ccc(F)cc1F`
Not satisfied

Next compound: `Cc1ccc2cccc(Oc3ccc(Nc4ncnc5onc(-c6ccccc6)c45)cc3)c2n1`
Satisfied

Next compound: `O=c1oc2ccc(Br)cc2c(=O)n1-c1ccc(Cl)cc1F`
Not satisfied

---

Could you please report measured growth for the items listed next?
- Test system: HOP-92 NSCLC
- Method: NCI-60 one-dose screen, 48 h (100 = growth as untreated, 0 = no growth, -100 = all killed)
- Settings: 10 µM unless noted
The panel holds about 83,000 compounds, 20% with a hit somewhere; the sample as a whole holds those more often. Calls of active or inactive are those of the source. How the source made its calls: active means growth percent below 10; inactive means the rest.

Consider the molecule shown here: CCCCC(O)(c1ccc(Cl)cc1)C(CN1CCOCC1)c1ccc(Cl)cc1 (configuration not stated) What is its recorded growth?
-3.36% (active)

Next molecule: `O=C(NC(=S)Nc1cccc(NC(=S)NC(=O)c2ccccc2)c1)c1ccccc1`
34.8% (inactive)

Next molecule: COc1ccc(CCN2C(=O)/C(=C/c3ccc(C4Oc5ccccc5C5CC(c6cccc(OC)c6)=NN54)cc3)SC2=S)cc1 (configuration not stated)
96.2% (inactive)

Next molecule: `CCOC(=O)C(CC(=O)O)=C(C(=O)OCC)C(=O)OCC`
89.5% (inactive)

Next molecule: `Cc1ccc(C(=O)c2oc3ccc4c(C)cc(=O)oc4c3c2C)cc1`
9.32% (active)

Next molecule: `O=c1oc2ccc(-c3ccc(F)cc3F)cc2c(=O)n1-c1cccc(C(F)(F)F)c1`
-26.6% (active)

Next molecule: `CCOC(=O)C1(Cc2ccccc2)CCN(Cc2cccc(OC)c2O)CC1`
30.6% (inactive)

Next molecule: `CNC(=O)c1cc(Oc2ccc(CC(=O)Nc3cc(C(C)(C)C)cn3C)cc2)ccn1`
84% (inactive)

Next molecule: `COc1ccc(OC)c(N(CCN2C(=O)c3ccccc3C2=O)C(=O)CCl)c1`
-11.4% (active)

Next molecule: `COc1cc(/C=C/C(=O)c2ccc(Nc3nc(NCCO)nc(N4CCOCC4)n3)cc2)cc(OC)c1OC`
39.7% (inactive)

Next molecule: `CC(=O)O[C@@H]1/C=C/C(=O)N[C@@H](C)CCC/C=C/[C@@H]2CCC[C@H]21`
92.9% (inactive)

Next molecule: `Nc1nc(Nc2cccc(F)c2)nc2ccccc12`
-2.46% (active)

Next molecule: `C[n+]1c2ccccc2nc2ccc(NCCO)cc21`
30.9% (inactive)

Next molecule: `Clc1ncccc1Nc1ccc2nnc(-c3ccncc3)n2n1`
110% (inactive)

Next molecule: `Nc1ccc(C2c3ccccc3Oc3ccccc32)cc1`
93.4% (inactive)

Next molecule: `COc1cc(/C=C2\Oc3cc(OCCCN4CCCC4)ccc3C2=O)cc(OC)c1`
67.6% (inactive)

Next molecule: `COc1ccc(C)c2sc(N(Cc3cccnc3)C(=O)c3ccc(C#N)cc3)nc12`
-3.64% (active)

Next molecule: `O=C(Nc1ccc(N2CCNCC2)cc1)c1[nH]ncc1Nc1cc(Oc2ccccc2)ncn1`
-21% (active)

Next molecule: `Cc1ccc(CN2CCC(C(=O)Nc3ccc(-c4cc5ccccc5[nH]4)cc3)CC2)o1`
36.8% (inactive)

Next molecule: `O=S1(=O)CCN(Cc2ccccc2)CC1`
79.5% (inactive)

Next molecule: Cc1ccc(NCCNCC(O)CO)c2c(=O)c3ccccc3sc12 (configuration not stated)
-2.88% (active)

Next molecule: CC(C)CCNCC(O)Cn1c2ccccc2c2ccccc21 (configuration not stated)
-13.7% (active)

---

- Test system: UO-31 renal
- Method: NCI-60 one-dose screen, 48 h (100 = growth as untreated, 0 = no growth, -100 = all killed)
- Settings: 10 µM unless noted
Compounds without any hit were thinned out: in the full panel of roughly 83,000, 20% have a hit.
Quantity: growth (%)
Please reply with the bare figure in % and do not write the unit itself.

What reported growth corresponds to `Oc1c(CN2CCN(c3ccccc3F)CC2)cc(Br)c2cccnc12` on UO-31 renal?
-69.6

Next compound: CCc1ccc(CNCC(O)c2ccccc2)cc1 (centres undefined)
34.6

Next compound: `COc1ccc(-c2cn3c(C(=O)Nc4ccccc4Cl)c(-c4ccccc4)c4c3n2CCCC4)cc1`
62.8

Next compound: `CCOC(=O)c1c(C=O)nc2ccccc2c1/C=C/c1ccc(Cl)cc1`
72.7

Next compound: `Cc1ccc(Nc2nc(N)c3ccccc3n2)cc1Cl`
57.2

Next compound: `Cn1nc(C(F)(F)F)c(-c2ccc(Cl)c(C(F)(F)F)c2)c1-c1ccc(OCc2ccc(Cl)cc2)cc1O`
-6.34

Next compound: `COC(=O)/C(CCC=C(C)C)=C1\[C@@H](OC(C)=O)C[C@@]2(C)[C@H]1C[C@@H](O)[C@H]1[C@@]3(C)CC[C@H](NC(=O)c4cnccn4)[C@@H](C)[C@@H]3CC[C@@]12C`
85.6

Next compound: `COc1ccc(-c2nnc(COc3ccc(C(=O)/C=C/c4ccco4)cc3)o2)cc1`
53.5

Next compound: COc1ccc(CN2CCCC(C(=O)c3ccc(C(F)(F)F)cc3)C2)c(O)c1 (centres undefined)
26.4

---

- Tested on: NCI-H460 lung
- Method: NCI-60 one-dose screen, 48 h (100 = growth as untreated, 0 = no growth, -100 = all killed)
- Settings: 10 µM unless noted
The panel holds about 83,000 compounds, 20% with a hit somewhere; the sample as a whole holds those more often. Activity calls are given as the source filed them. The calls were made as follows: active = growth percent below 10; inactive = the rest.
Could you please report measured growth for the items listed next?

Consider the compound shown here: `Cn1c(=O)n(C)c2cc(CNCCNc3ccnc4cc(Cl)ccc34)ccc21` What is its recorded growth?
2.02% (active)

Next compound: `CCOC(=O)c1sc(-c2ccc(OS(=O)(=O)c3ccccc3[N+](=O)[O-])c(C=O)c2)nc1C`
91.2% (inactive)

Next compound: `NCCOc1ncccc1/C=C1\c2ccccc2-c2ccc([N+](=O)[O-])cc21`
-46.1% (active)

Next compound: `CC(C)C[C@H](C(=O)N[C@H](C(N)=O)C(C)C)N1CC=CCN(OCc2ccccc2)S1(=O)=O`
110% [2.5 µM] (inactive)

Next compound: CCOC(=O)C1=C(C)N=c2s/c(=C\c3ccccc3O)c(=O)n2C1c1ccc(OC)c2ccccc12 (centres undefined)
-41.8% (active)

Next compound: `O=c1cc(-c2ccccc2)oc2cc(OCc3cn(Cc4ccc(F)cc4)nn3)cc(OCc3cn(Cc4ccc(F)cc4)nn3)c12`
2.98% (active)

Next compound: `Cc1nc(Nc2ccccn2)sc1C(=O)/C=C/c1ccc(Cl)cc1`
3.86% (active)

Next compound: `CC(C)[C@H](NC(=O)Cn1cc(C(=O)O)nn1)C(=O)O`
106% (inactive)

Next compound: `O=C(NC(=S)Nc1cccc(NC(=S)NC(=O)c2ccccc2)c1)c1ccccc1`
46.4% (inactive)
